Assay: compounds altering in vitro BBB leakiness – cell-based, FITC-avidin fluorescence, HTS, primary screen (AID 1963498); note: test concentration not given here
Settings: brain endothelial barrier, actives lie on both sides
Define the label as true when fold change permeability is strictly less than 1 and as false in all remaining cases.

Please review the following examples before continuing.
compound: Cc1cc(C(=O)Cn2cc(C#N)ccc2=O)c(C)n1Cc1ccccc1
class: false
--
compound: O=c1n(CCCN2CCN(c3cccc(Cl)c3)CC2)nc2ccccn12
class: false
--
compound: CC(C)(CO)Cc1cc(C(C)(C)C)c(O)c(C(C)(C)C)c1
class: false

Is fold change permeability of CN1C(=O)c2sccc2N(C)c2nc(Nc3ccc(S(N)(=O)=O)cc3)ncc21 strictly below 1?
false

Now give it for N#Cc1c(N2C[C@@H]3NCCO[C@H]3C2)c(F)cc2c(=O)c(C(=O)O)cn(C3CC3)c12 too.
true

# repeat for O=C(c1cc(O)c(O)c([N+](=O)[O-])c1)c1ccccc1F
false

One more compound: NCc1c[nH]c(=S)n1[C@H]1CCc2c(F)cc(F)cc2C1
false

Same question, Brc1c(Br)c(Br)c2[nH]cnc2c1Br this time
false

Same again, this time with CC(N)(C(=O)O)c1ccc(C(=O)O)cc1 (stereo unspecified)
true

What about CC/C(=N\NC(=O)c1ccnc(NCCCN2CCOCC2)c1)c1ccc(Cl)cc1O ?
true

----------
Test: compounds altering in vitro BBB leakiness – cell-based, FITC-avidin fluorescence, HTS, primary screen (AID 1963498); note: test concentration not given here
Conditions: brain endothelial barrier, actives lie on both sides
Calls of active or inactive are those of the source. No stated cut-off is given here; in the data, active means fold change permeability below about 0.7 or above about 1.3; inactive means in between.
Pick from true = active, false = inactive when you respond.

Below are worked cases with known answers.
compound: O=C(O)CCC(C(=O)O)N1C(=O)c2ccccc2C1=O (configuration not stated)
class: false

compound: C[C@]12CC[C@@H]3c4ccc(O)cc4C[C@@H](CCCCCCCCCS(=O)CCCC(F)(F)C(F)(F)F)[C@H]3[C@@H]1CC[C@@H]2O (some centres not stated)
class: false

compound: C=CCNc1ncnc2ccc(Br)cc12
class: false

compound: O=C(S)S
class: true

compound: C[N+](C)(C)CCOC(N)=O
class: false

So what was the verdict on CCCCCCCCCCCCCCCCCCOP(=O)([O-])OC1CC[N+](C)(C)CC1 in this test?
false

What do you have for CN(C)CCOC(=O)COc1ccc(Cl)cc1 ?
false

Entry to check: O=c1[nH]ccc2c(O)cccc12
true

Do the same for C[C@H](N[C@@H](CCc1ccccc1)C(=O)O)C(=O)N1CCC[C@H]1C(=O)O please
true

Would you kindly repeat that for N[C@@H](CS(=O)O)C(=O)O ?
false

Now consider Cc1cc(C(C)(C)C)c(O)c(C)c1CC1=NCCN1 .
false

Please answer likewise for CC(=O)c1ccc2c(c1)N(CCCN(C)C)c1ccccc1S2
true

----------
Test: compounds altering in vitro BBB leakiness – cell-based, FITC-avidin fluorescence, HTS, primary screen (AID 1963498); note: test concentration not given here
Conditions: brain endothelial barrier, actives lie on both sides
The source made the active and inactive calls. No stated cut-off is given here; in the data, active means fold change permeability below about 0.7 or above about 1.3; inactive means in between.
result.type: fold change permeability

What value of measured fold change permeability is listed for Cc1cn([C@H]2C=C[C@@H](CO)O2)c(=O)[nH]c1=O ?
1.2 (inactive)

Also check OC[C@H]1NC[C@@H](O)[C@@H]1O
1 (inactive)

Same read-out for Cc1c(C(C)C)c(=O)n(-c2ccc(S(=O)(=O)NCCOc3ccccc3)cc2)n1C ?
1.3 (active)

Now this one: CC(/C=C/c1cccc(Oc2ccc(F)cc2)c1)N(O)C(N)=O (stereo unspecified)
1.1 (inactive)

How about COc1ccccc1-c1cc(Nc2cccc(CS(N)(=O)=O)c2)ncn1 ?
0.9 (inactive)

// next record Cc1[nH]c(=O)c(C#N)cc1-c1ccc2nccn2c1
0.8 (inactive)

Follow-up entry: Cc1ccccc1N1C(=O)c2cc(S(N)(=O)=O)c(Cl)cc2NC1C (stereo unspecified)
0.8 (inactive)

Now consider CCN(CC)CCCCCCCCOC(=O)c1cc(OC)c(OC)c(OC)c1 .
1.1 (inactive)

Same question, Cc1cc(C)c(S(=O)(=O)N(CCc2cccc(Br)c2)Cc2ccc(-c3cccc(S(C)(=O)=O)c3)cc2)c(C)c1 this time
1.8 (active)

Next compound: Cc1ccccc1/C=C/C1=NCCN1
0.7 (active)

# iterate: N#Cc1ccc(-c2csc(NN=C3CCCC3)n2)cc1
1.7 (active)
